Source listed as ChEMBL document CHEMBL3992538.

test: Selectivity index, ratio of GI50 for human HeLa cells to MIC for dormant stage of Mycobacterium tuberculosis H37Ra ATCC 25177 infected in human THP1 cells; assay type: toxicity, cell-based; conditions: read-out: Selectivity Index
measure: selectivity ratio

In the examples that follow, each entry is paired with its recorded selectivity ratio.
COc1cc(-c2nc(SCCCn3cnc4sc5c(c4c3=O)CCCC5)n(CCCn3cnc4sc5c(c4c3=O)CCCC5)c(=O)c2C#N)cc(OC)c1OC : < 3
COc1cc(-c2nc(SCCCn3cnc4sc5c(c4c3=O)CCCC5)n(S(=O)(=O)c3ccc(C)cc3)c(=O)c2C#N)cc(OC)c1OC : < 2

In: // selectivity ratio lookup, key: "CCCCCCCCCCCn1c(SCCCn2cnc3sc4c(c3c2=O)CCCC4)nc(-c2cc(OC)c(OC)c(OC)c2)c(C#N)c1=O"
Out: > 3

In: // selectivity ratio lookup, key: "CCCc1cc2c(=O)n(CCCSc3nc(-c4cc(OC)c(OC)c(OC)c4)c(C#N)c(=O)[nH]3)cnc2s1"
Out: 4

====

assay: Selectivity index, ratio of GI50 for human PANC1 cells to MIC for active stage of Mycobacterium tuberculosis H37Ra ATCC 25177 infected in human THP1 cells; assay type: toxicity, cell-based; details: PANC-1 cells, read-out: Selectivity Index
measure: selectivity ratio

In the examples that follow, each entry is paired with its recorded selectivity ratio.
COc1cc(-c2nc(SCCCn3cnc4sc5c(c4c3=O)CCCC5)n(CCCn3cnc4sc5c(c4c3=O)CCCC5)c(=O)c2C#N)cc(OC)c1OC : > 3
CCCCCn1c(SCCCn2cnc3sc4c(c3c2=O)CCCC4)nc(-c2cc(OC)c(OC)c(OC)c2)c(C#N)c1=O : > 3

We now examine a further compound.
In: // selectivity ratio lookup, key: "Cc1ccc(-c2nc(S)nc(O)c2C#N)cc1"
Out: > 3

====

assay: Selectivity index, ratio of GI50 for human HeLa cells to MIC for dormant stage of Mycobacterium tuberculosis H37Ra ATCC 25177; assay type: toxicity, cell-based; conditions: read-out: Selectivity Index
measure: selectivity ratio

In the examples that follow, each entry is paired with its recorded selectivity ratio.
CCCCCCCCCCCn1c(SCCCn2cnc3sc4c(c3c2=O)CCCC4)nc(-c2cc(OC)c(OC)c(OC)c2)c(C#N)c1=O : > 3
CCCCCCCCn1c(SCCCn2cnc3sc4c(c3c2=O)CCCC4)nc(-c2cc(OC)c(OC)c(OC)c2)c(C#N)c1=O : > 3
COc1cc(-c2nc(SCCCn3cnc4sc5c(c4c3=O)CCCC5)n(CCC(F)(F)C(F)(F)C(F)(F)C(F)(F)C(F)(F)C(F)(F)F)c(=O)c2C#N)cc(OC)c1OC : > 8

We now examine a further compound.
In: // selectivity ratio lookup, key: "COc1cc(-c2nc(SCCCn3cnc4sc5c(c4c3=O)CCCC5)n(Cc3c(F)c(F)c(F)c(F)c3F)c(=O)c2C#N)cc(OC)c1OC"
Out: > 4

====

test: Selectivity index, ratio of GI50 for human A549 cells to MIC for dormant stage of Mycobacterium tuberculosis H37Ra ATCC 25177 infected in human THP1 cells; format: toxicity, cell-based; conditions: read-out: Selectivity Index
measure: selectivity ratio

C#CCn1c(SCCCn2cnc3sc4c(c3c2=O)CCCC4)nc(-c2cc(OC)c(OC)c(OC)c2)c(C#N)c1=O : > 3
COc1cc(-c2nc(SCCCn3cnc4sc5c(c4c3=O)CCCC5)n(S(=O)(=O)c3ccc(C)cc3)c(=O)c2C#N)cc(OC)c1OC : > 3
CCCCCCCCCCCn1c(SCCCn2cnc3sc4c(c3c2=O)CCCC4)nc(-c2cc(OC)c(OC)c(OC)c2)c(C#N)c1=O : > 3
COc1cc(-c2nc(SCCCn3cnc4sc5c(c4c3=O)CCCC5)n(Cc3c(F)c(F)c(F)c(F)c3F)c(=O)c2C#N)cc(OC)c1OC : > 4
CCCc1cc2c(=O)n(CCCSc3nc(-c4cc(OC)c(OC)c(OC)c4)c(C#N)c(=O)[nH]3)cnc2s1 : > 8
CCCCCc1cc2c(=O)n(CCCSc3nc(-c4cc(OC)c(OC)c(OC)c4)c(C#N)c(=O)[nH]3)cnc2s1 : > 10
COc1cc(-c2[nH]c(=S)[nH]c(=O)c2C#N)cc(OC)c1OC : > 9
COc1cc(-c2nc(SCCCn3cnc4sc5c(c4c3=O)CCCC5)n(CCC(F)(F)C(F)(F)C(F)(F)C(F)(F)C(F)(F)C(F)(F)F)c(=O)c2C#N)cc(OC)c1OC : > 11

We now examine a further compound.
In: // selectivity ratio lookup, key: "COc1cc(-c2nc(SCCCn3cnc4sc5c(c4c3=O)CCCC5)n(Cc3ccccc3)c(=O)c2C#N)cc(OC)c1OC"
Out: > 3

====

experiment: Cytotoxicity against human THP1 cells assessed as growth inhibition by MTT assay; type: cell-based; conditions: THP-1 cells
Recorded GI50 by entry

In: // GI50 lookup, key: "CCCc1cc2c(=O)n(CCCSc3nc(-c4cc(OC)c(OC)c(OC)c4)c(C#N)c(=O)[nH]3)cnc2s1"
Out: > 100 µg/mL

In: // GI50 lookup, key: "COc1cc(-c2[nH]c(=S)[nH]c(=O)c2C#N)cc(OC)c1OC"
Out: > 100 µg/mL

In: // GI50 lookup, key: "CCCCCCCCCCCn1c(SCCCn2cnc3sc4c(c3c2=O)CCCC4)nc(-c2cc(OC)c(OC)c(OC)c2)c(C#N)c1=O"
Out: > 100 µg/mL

====

Recorded GI50 by entry
assay: Cytotoxicity against human THP1 cells assessed as growth inhibition by MTT assay; format: cell-based; details: THP-1 cells

In the examples that follow, each entry is paired with its recorded GI50.
CCCCCCCCn1c(SCCCn2cnc3sc4c(c3c2=O)CCCC4)nc(-c2cc(OC)c(OC)c(OC)c2)c(C#N)c1=O : > 100 µg/mL
COc1cc(-c2nc(SCCCn3cnc4sc5c(c4c3=O)CCCC5)n(Cc3ccccc3)c(=O)c2C#N)cc(OC)c1OC : > 100 µg/mL
CCCCCc1cc2c(=O)n(CCCSc3nc(-c4cc(OC)c(OC)c(OC)c4)c(C#N)c(=O)[nH]3)cnc2s1 : > 100 µg/mL

In: // GI50 lookup, key: "CCCCCn1c(SCCCn2cnc3sc4c(c3c2=O)CCCC4)nc(-c2cc(OC)c(OC)c(OC)c2)c(C#N)c1=O"
Out: > 100 µg/mL

In: // GI50 lookup, key: "C#CCn1c(SCCCn2cnc3sc4c(c3c2=O)CCCC4)nc(-c2cc(OC)c(OC)c(OC)c2)c(C#N)c1=O"
Out: > 100 µg/mL

In: // GI50 lookup, key: "COc1cc(-c2nc(SCCCn3cnc4sc5c(c4c3=O)CCCC5)n(CCC(F)(F)C(F)(F)C(F)(F)C(F)(F)C(F)(F)C(F)(F)F)c(=O)c2C#N)cc(OC)c1OC"
Out: > 100 µg/mL

In: // GI50 lookup, key: "COc1cc(-c2nc(SCCCn3cnc4sc5c(c4c3=O)CCCC5)n(Cc3c(F)c(F)c(F)c(F)c3F)c(=O)c2C#N)cc(OC)c1OC"
Out: > 100 µg/mL

In: // GI50 lookup, key: "CCCCCCCc1cc2c(=O)n(CCSc3nc(-c4cc(OC)c(OC)c(OC)c4)c(C#N)c(=O)[nH]3)cnc2s1"
Out: 88.1 µg/mL

In: // GI50 lookup, key: "COc1cc(-c2nc(SCCCn3cnc4sc5c(c4c3=O)CCCC5)n(S(=O)(=O)c3ccc(C)cc3)c(=O)c2C#N)cc(OC)c1OC"
Out: > 100 µg/mL

In: // GI50 lookup, key: "CCCCCCc1cc2c(=O)n(CCCSc3nc(-c4cc(OC)c(OC)c(OC)c4)c(C#N)c(=O)[nH]3)cnc2s1"
Out: 54.3 µg/mL

In: // GI50 lookup, key: "COc1cc(-c2nc(SCCCn3cnc4sc5c(c4c3=O)CCCC5)n(C)c(=O)c2C#N)cc(OC)c1OC"
Out: 89.7 µg/mL

In: // GI50 lookup, key: CO[C@H]1/C=C/O[C@@]2(C)Oc3c(C)c(O)c4c(O)c(c(/C=N/N5CCN(C)CC5)c(O)c4c3C2=O)NC(=O)/C(C)=C\C=C\[C@H](C)[C@H](O)[C@@H](C)[C@@H](O)[C@@H](C)[C@H](OC(C)=O)[C@@H]1C [RIFAMPIN]
Out: 0.14 µg/mL

====

test: Selectivity index, ratio of GI50 for human HeLa cells to MIC for active stage of Mycobacterium tuberculosis H37Ra ATCC 25177 infected in human THP1 cells; format: toxicity, cell-based; conditions: read-out: Selectivity Index
measure: selectivity ratio
When you answer, write just the number.

In the examples that follow, each entry is paired with its recorded selectivity ratio.
CCCCCCc1cc2c(=O)n(CCCSc3nc(-c4cc(OC)c(OC)c(OC)c4)c(C#N)c(=O)[nH]3)cnc2s1 : 2
CCCCCc1cc2c(=O)n(CCCSc3nc(-c4cc(OC)c(OC)c(OC)c4)c(C#N)c(=O)[nH]3)cnc2s1 : 3
COc1cc(-c2nc(SCCCn3cnc4sc5c(c4c3=O)CCCC5)[nH]c(=O)c2C#N)cc(OC)c1OC : 2
CCCCCn1c(SCCCn2cnc3sc4c(c3c2=O)CCCC4)nc(-c2cc(OC)c(OC)c(OC)c2)c(C#N)c1=O : 2
COc1cc(-c2nc(SCCCn3cnc4sc5c(c4c3=O)CCCC5)n(Cc3ccccc3)c(=O)c2C#N)cc(OC)c1OC : 2
COc1cc(-c2nc(SCCCn3cnc4sc5c(c4c3=O)CCCC5)n(C)c(=O)c2C#N)cc(OC)c1OC : 3

In: // selectivity ratio lookup, key: "C#CCn1c(SCCCn2cnc3sc4c(c3c2=O)CCCC4)nc(-c2cc(OC)c(OC)c(OC)c2)c(C#N)c1=O"
Out: 2
